The values you see were collected from paper PMC10150354.

- Tested on: E. coli ATCC 25922
- Assay type: cell-based, Escherichia coli
- condition: (Supplement 2)
Where a SMILES comes first, the peptide text is derived from it. [ ]: non-standard residue; d: D form. The star is where a group is joined. ξ: configuration not given here. Octanoyl(7-Me) = CC(C)CCCCCC(=O)*; Hexanoyl(4ξ-Me) = CCC(C)CCC(=O)*; dOrn = NCCC[C@@H](N)C(=O)O; Orn = NCCC[C@H](N)C(=O)O
observationType: MIC (µg/mL) against E. coli (ATCC 25922)

| compound | observationType | boundSign | recordedResult |
| --- | --- | --- | --- |
| CC[C@H](C)[C@H](NC(=O)[C@H](CC(C)C)NC(=O)[C@H](Cc1c[nH]c2ccccc12)NC(=O)[C@@H](CCCN)NC(=O)CNC(=O)[C@H](CCCN)NC(=O)[C@@H](CCCN)NC(=O)[C@@H](Cc1c[nH]c2ccccc12)NC(=O)[C@@H](Cc1ccc(O)cc1)NC(=O)[C@@H](CO)NC(=O)CCCCCC(C)C)C(=O)N[C@@H](CC(N)=O)C(=O)NCC(=O)NCC(N)=O [LL(Leu9)-NH2 (42)] ({Octanoyl(7-Me)}-[dS][dY][dW][dOrn][Orn]G[dOrn]WLINGG-NH2) | MIC (µg/mL) against E. coli (ATCC 25922) | = | 4 |
| CCC(C)CCC(=O)N[C@H](CC(N)=O)C(=O)N[C@H](Cc1ccc(O)cc1)C(=O)N[C@H](Cc1c[nH]c2ccccc12)C(=O)N[C@H](CCCN)C(=O)N[C@@H](CCCN)C(=O)NCC(=O)N[C@H](C)C(=O)N[C@@H](Cc1c[nH]c2ccccc12)C(=O)N[C@H](C(=O)N[C@H](C(=O)NCC(=O)N[C@@H](CO)C(N)=O)[C@@H](C)CC)[C@@H](C)O (stereo partly drawn) [LB(D-Ala7)-NH2 (23)] ({Hexanoyl(4ξ-Me)}-[dN][dY][dW][dOrn][Orn]G[dA]WTIGS-NH2) | MIC (µg/mL) against E. coli (ATCC 25922) | > | 32 |

###

- Test system: E. coli ATCC 25922
- Assay type: cell-based, Escherichia coli
- condition: (Supplement 2)
Where a SMILES comes first, the peptide text is derived from it. [ ]: non-standard residue; d: D form. The star is where a group is joined. ξ: configuration not given here. Octanoyl(7-Me) = CC(C)CCCCCC(=O)*; Hexanoyl(4ξ-Me) = CCC(C)CCC(=O)*; dOrn = NCCC[C@@H](N)C(=O)O; Orn = NCCC[C@H](N)C(=O)O
observationType: MIC (µg/mL) against E. coli (ATCC 25922)

| compound | recordedResult |
| --- | --- |
| CCC(C)CCC(=O)N[C@H](CC(N)=O)C(=O)N[C@H](Cc1ccc(O)cc1)C(=O)N[C@H](Cc1c[nH]c2ccccc12)C(=O)N[C@H](CCCN)C(=O)N[C@@H](CCCN)C(=O)NCC(=O)N[C@H](CCCN)C(=O)N[C@@H](Cc1c[nH]c2ccccc12)C(=O)N[C@H](C(=O)N[C@@H](C)C(=O)NCC(=O)N[C@@H](CO)C(N)=O)[C@@H](C)O (stereo partly drawn) [LB(Ala10)-NH2 (26)] ({Hexanoyl(4ξ-Me)}-[dN][dY][dW][dOrn][Orn]G[dOrn]WTAGS-NH2) | >32 µg/mL |
| CCC(C)CCC(=O)N[C@H](CC(N)=O)C(=O)N[C@H](C)C(=O)N[C@H](Cc1c[nH]c2ccccc12)C(=O)N[C@H](CCCN)C(=O)N[C@@H](CCCN)C(=O)NCC(=O)N[C@H](CCCN)C(=O)N[C@@H](Cc1c[nH]c2ccccc12)C(=O)N[C@H](C(=O)N[C@H](C(=O)NCC(=O)N[C@@H](CO)C(N)=O)[C@@H](C)CC)[C@@H](C)O (stereo partly drawn) [LB(D-Ala2)-NH2 (18)] ({Hexanoyl(4ξ-Me)}-[dN][dA][dW][dOrn][Orn]G[dOrn]WTIGS-NH2) | >32 µg/mL |
| CC[C@H](C)[C@H](NC(=O)[C@@H](NC(=O)[C@H](Cc1c[nH]c2ccccc12)NC(=O)[C@@H](CCCN)NC(=O)CNC(=O)[C@H](CCCN)NC(=O)[C@@H](CCCN)NC(=O)[C@@H](Cc1c[nH]c2ccccc12)NC(=O)[C@@H](Cc1ccc(O)cc1)NC(=O)[C@@H](CO)NC(=O)CCCCCC(C)C)[C@@H](C)O)C(=O)N[C@@H](CC(N)=O)C(=O)NCC(=O)N[C@@H](C)C(N)=O [LL(Ala13)-NH2 (41)] ({Octanoyl(7-Me)}-[dS][dY][dW][dOrn][Orn]G[dOrn]WTINGA-NH2) | 4 to 8 µg/mL |
